- Assay Target: Cbl-b (Homo sapiens (Human), UniProt Q13191)
- Sequence (Q13191 40-426): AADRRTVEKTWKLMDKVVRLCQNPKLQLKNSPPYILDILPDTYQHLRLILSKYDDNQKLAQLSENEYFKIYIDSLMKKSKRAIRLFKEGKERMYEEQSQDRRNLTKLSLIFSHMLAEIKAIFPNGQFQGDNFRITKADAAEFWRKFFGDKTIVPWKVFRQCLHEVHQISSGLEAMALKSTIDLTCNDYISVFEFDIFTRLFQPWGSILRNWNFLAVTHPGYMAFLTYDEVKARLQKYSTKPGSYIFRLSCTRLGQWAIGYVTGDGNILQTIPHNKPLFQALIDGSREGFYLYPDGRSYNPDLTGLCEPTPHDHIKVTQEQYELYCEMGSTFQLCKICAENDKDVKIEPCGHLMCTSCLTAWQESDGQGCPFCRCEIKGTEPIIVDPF
- Experiment Notes: Cbl-b LCK Ub TR-FRET assay (Cbl-b Lck HTRF)
- Assay type: biochemical
- Stated Conditions: Cbl-b LCK Ub TR-FRET
Assay Readout: IC50 (nM)

Examples with their reported IC50 follow.
>  <Molecule>
C=C[C@@H](C)Nc1cc(N2Cc3c(cc(CNC4(C)CCC4)cc3C(F)(F)F)C2=O)cc([C@]2(c3nncn3C)C[C@H](OC)C2)c1 (single isomer, unassigned) [Compound 219]

>  <IC50, nM>
13

$$$$
>  <Molecule>
CO[C@H]1C[C@](c2cc(N[C@H](C)CC#N)cc(N3Cc4c(cc(CNC5(C)CCC5)cc4C(F)(F)F)C3=O)c2)(c2nncn2C)C1 (single isomer, unassigned) [Compound 221]

>  <IC50, nM>
11

$$$$

1 = CO[C@H]1C[C@](c2cc(OC3CCCC3)cc(N3Cc4c(cc(CNC5(C)CCC5)cc4C(F)(F)F)C3=O)c2)(c2nncn2C)C1 [Compound 212]
2 = CCNc1cc(C2(c3nncn3C)CC3(COC3)C2)cc(N2Cc3c(cc(CNC4(C)CCC4)cc3C(F)(F)F)C2=O)n1 [Compound 7]
[in] Kindly identify which of 1 and 2 has the larger recorded IC50 value. // caller expects the label of the chosen entry
[out] 1
(1: 150 nM, 2: 27 nM)
